# Tested On: T1, human GIP receptor (human, UniProt P48546 22-466)
# T1 sequence (looked up): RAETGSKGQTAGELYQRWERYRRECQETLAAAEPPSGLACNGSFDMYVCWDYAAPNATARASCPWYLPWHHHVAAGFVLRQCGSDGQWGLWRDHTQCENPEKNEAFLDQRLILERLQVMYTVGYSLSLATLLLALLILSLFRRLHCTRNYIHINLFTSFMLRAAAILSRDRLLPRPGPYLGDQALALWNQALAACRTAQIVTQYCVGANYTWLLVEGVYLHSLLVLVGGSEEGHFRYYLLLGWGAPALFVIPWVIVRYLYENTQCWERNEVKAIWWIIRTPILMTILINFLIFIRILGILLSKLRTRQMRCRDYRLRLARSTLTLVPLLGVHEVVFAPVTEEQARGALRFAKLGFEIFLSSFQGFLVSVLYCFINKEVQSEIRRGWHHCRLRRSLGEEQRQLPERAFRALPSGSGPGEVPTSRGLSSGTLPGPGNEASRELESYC
# Assay: cell-based or functional assay
*1 amine or outer side, *2 acyl side, *3 side chain or, on linkers, in order; H or OH if unused. Where no end group is shown, it is not given here. Side-chain parts run from the residue outwards. [ ]: non-standard residue; d: D form. The star is where a group is joined. C20 diacid = O=C(O)CCCCCCCCCCCCCCCCCCC(=O)*; γGlu = O=C(O)[C@H](CCC(=O)[*:2])N[*:1]; εLys = N[C@@H](CCCCN[*:1])C(=O)[*:2]; AEEA = NCCOCCOCC(=O)O; Aib = CC(C)(N)C(=O)O
Observation Type: EC50, CreLuc reporter, 0.5% hP (pM)
Your answer is read as pM, so omit the unit and give the number.

Worked cases, EC50, CreLuc reporter, 0.5% hP given:
# Binder, EC50, CreLuc reporter, 0.5% hP, pM
measured = [
    ("Y[Aib]EGTFTSDYSI[Aib]LEKQAQ[Aib]AFVRHLINK([AEEA-γGlu-γGlu-γGlu-γGlu-γGlu-γGlu-C20 diacid])[Aib]TRQRY-NH2 [Compound 99]", 500),
    ("Y[Aib]EGTFTSDLSI[Aib]LEKQAQ[Aib]AFVRHLINK([εLys-γGlu-γGlu-γGlu-γGlu-γGlu-γGlu-γGlu-C20 diacid])[Aib]TRQRY-NH2 [Compound 135]", 500),
]

Query :: Respond only with EC50, CreLuc reporter, 0.5% hP recorded for YXEGTFTSDLSIXLEKQAQXAFVRHLINKXTRQRY (Aib at 2, 13, 20, 30; Lys29 epsilon-amino: C18DA-gGlu-gGlu-gGlu-gGlu-gGlu-gGlu-eLys; C-terminal amide) [Compound 169]
Result :: 400
